# protocol.text: qHTS assay to identify small molecule that activate the aryl hydrocarbon receptor (AhR) signaling pathway - cell viability counter screen (AID 743086);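 further: HepG2 liver cells carrying the AhR DRE luciferase reporter; nearly all actives have a fitted effect of over 45% in size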
# condition.set: HepG2-AhR-luc viability, CellTiter-Fluor, 24 h; series mostly up to 70.3 µM
Inconclusive results are not listed. Active and inactive are the calls of the source. The call rests on the fitted dose curve; in most records, active means well fitted cell-killing curve with a large enough effect in the repeat runs; inconclusive means weak or mixed curves, or effect the other way; inactive means flat fitted curve, though single readings scatter.

compound: CC12CCC(C[N+](C)(CCC[N+](C)(C)C)C1)C2(C)C (stereo not drawn)
outcome: inactive
//
compound: NC(=O)CC[C@@H]1NC(=O)[C@H](Cc2ccccc2)NC(=O)[C@H](Cc2ccc(O)cc2)NC(=O)[C@@H](N)CSSC[C@@H](C(=O)N2CCC[C@H]2C(=O)N[C@@H](CCCN=C(N)N)C(=O)NCC(N)=O)NC(=O)[C@H](CC(N)=O)NC1=O
outcome: inactive
//
compound: C/C=C/C1=C(C(=O)O)N2C(=O)[C@@H](NC(=O)[C@H](N)c3ccc(O)cc3)[C@H]2SC1
outcome: inactive
